test system: NCI-H522 lung; experiment: NCI tumour cell line growth inhibition, 48 h
readout: TGI (µM)
Express it in µM; write the number only.

Please report TGI for the following molecule: O=C1Nc2cc(OC(F)(F)F)ccc2Oc2ccc(-c3ccnc(N4CCNCC4)c3)cc21
3.16

Please report TGI for the following molecule: CSc1ccc(/C(=N/N=C(N)N)c2ccc(F)cc2)cc1
11.7

Please report TGI for the following molecule: COc1ccc(Cn2cc3c(c2-c2cc(OC)c(OC)c(OC)c2)CCc2c(CN4CCCC4)noc2-3)cc1
18.9

Please report TGI for the following molecule: O=C(NNc1nc2cc(F)c(F)cc2n2c(CN3CC4CNCC4C3)ccc12)c1ncccn1 (centres undefined)
21.2
